- study-system: T1, human CDH6 on tumor cells (OVCAR3 cells, PA-1 cells) (human, UniProt P55285 54-790)
- T1 sequence: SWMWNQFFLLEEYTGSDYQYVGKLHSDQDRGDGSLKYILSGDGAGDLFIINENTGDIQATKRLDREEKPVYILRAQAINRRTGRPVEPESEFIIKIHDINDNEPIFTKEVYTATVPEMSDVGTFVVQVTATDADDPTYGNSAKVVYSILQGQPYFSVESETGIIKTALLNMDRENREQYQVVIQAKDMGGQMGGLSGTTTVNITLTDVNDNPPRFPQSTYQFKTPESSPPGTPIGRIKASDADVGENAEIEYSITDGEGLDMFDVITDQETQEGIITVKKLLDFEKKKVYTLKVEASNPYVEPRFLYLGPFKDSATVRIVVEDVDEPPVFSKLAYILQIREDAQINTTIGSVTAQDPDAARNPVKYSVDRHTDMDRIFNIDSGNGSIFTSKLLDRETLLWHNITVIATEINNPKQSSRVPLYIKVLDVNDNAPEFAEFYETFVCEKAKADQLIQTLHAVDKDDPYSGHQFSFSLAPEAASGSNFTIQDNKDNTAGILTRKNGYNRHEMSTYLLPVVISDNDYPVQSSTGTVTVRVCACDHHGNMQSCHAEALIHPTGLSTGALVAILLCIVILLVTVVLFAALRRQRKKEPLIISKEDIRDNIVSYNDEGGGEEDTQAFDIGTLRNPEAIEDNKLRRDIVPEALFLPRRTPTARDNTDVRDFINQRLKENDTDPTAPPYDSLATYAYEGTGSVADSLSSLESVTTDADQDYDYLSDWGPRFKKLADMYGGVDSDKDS
- assay-method-text: FACS, OVCAR3 cells
pEC50: −log10 of the molar value.

| binder | pEC50 |
| --- | --- |
| hCDH6-6-H3L1 (antibody, V domains shown, Humanized) VH: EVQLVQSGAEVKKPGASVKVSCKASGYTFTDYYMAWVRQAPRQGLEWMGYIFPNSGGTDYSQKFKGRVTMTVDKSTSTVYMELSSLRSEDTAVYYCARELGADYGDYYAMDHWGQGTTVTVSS VL: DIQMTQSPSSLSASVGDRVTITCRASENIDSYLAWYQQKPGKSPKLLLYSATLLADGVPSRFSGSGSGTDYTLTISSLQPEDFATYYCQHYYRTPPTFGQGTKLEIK | 9.06 |
| hCDH6-6-H3L4 (antibody, V domains shown, Humanized) VH: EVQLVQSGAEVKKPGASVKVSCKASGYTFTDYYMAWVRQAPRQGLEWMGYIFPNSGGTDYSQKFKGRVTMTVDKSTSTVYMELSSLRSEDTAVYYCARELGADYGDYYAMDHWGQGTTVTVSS VL: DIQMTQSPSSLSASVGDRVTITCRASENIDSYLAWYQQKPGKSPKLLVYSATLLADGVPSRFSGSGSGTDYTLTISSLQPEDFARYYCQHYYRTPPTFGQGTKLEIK | 9.15 |
| hCDH6-6-H3L3 (antibody, V domains shown, Humanized) VH: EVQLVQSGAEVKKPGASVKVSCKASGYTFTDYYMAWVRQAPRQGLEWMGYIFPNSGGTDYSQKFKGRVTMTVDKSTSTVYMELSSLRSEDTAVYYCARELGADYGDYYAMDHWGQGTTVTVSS VL: DIQMTQSPSSLSASVGDRVTITCRASENIDSYLAWYQQKPGKSPQLLVYSATLLADGVPSRFSGSGSGTDYTLTISSLQPEDFATYYCQHYYRTPPTFGQGTKLEIK | 9.13 |
